- TESTED TARGET: Large subunit-rSCFV5 fusion protein
- Sequence (chain, as listed by the source): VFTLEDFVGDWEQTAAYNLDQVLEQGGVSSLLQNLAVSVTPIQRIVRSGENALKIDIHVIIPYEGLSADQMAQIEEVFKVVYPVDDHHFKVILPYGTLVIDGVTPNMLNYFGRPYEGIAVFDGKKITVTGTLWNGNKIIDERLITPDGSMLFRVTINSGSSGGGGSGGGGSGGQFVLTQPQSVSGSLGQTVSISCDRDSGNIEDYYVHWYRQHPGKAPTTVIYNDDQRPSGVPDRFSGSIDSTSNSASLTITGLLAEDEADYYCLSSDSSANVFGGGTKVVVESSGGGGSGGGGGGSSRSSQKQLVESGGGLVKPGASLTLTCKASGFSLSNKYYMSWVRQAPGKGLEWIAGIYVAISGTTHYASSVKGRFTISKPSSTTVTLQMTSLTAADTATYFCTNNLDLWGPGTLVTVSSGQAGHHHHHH
- ASSAY TEXT: cell-based or functional assay
EXPERIMENTAL ENDPOINT: normalised luminescence at PCT 1000 pg/ml

Sample records with normalised luminescence at PCT 1000 pg/ml:
Exercise: Would you mind telling me what normalised luminescence at PCT 1000 pg/ml value was observed for VDGWRLHEKIS (peptide, part only; not given: rSCFV18 scFv part, part only) [rSCFV18-small subunit mutant fusion protein RA141] ?
Key: 42800

Exercise: Would you mind telling me what normalised luminescence at PCT 1000 pg/ml value was observed for VSGWRIHEKIS (peptide, part only; not given: rSCFV18 scFv part, part only) [rSCFV18-small subunit mutant fusion protein RA120] ?
Key: 90100

(I) VEGYRLFNKEW (peptide, part only; not given: rSCFV18 scFv part, part only) [rSCFV18-small subunit mutant fusion protein RB284]
(II) VEGYRLFDKKW (peptide, part only; not given: rSCFV18 scFv part, part only) [rSCFV18-small subunit mutant fusion protein RB239]
Exercise: Of I versus II , which is the one with smaller reported normalised luminescence at PCT 1000 pg/ml? # answer = label of selected item
Key: I
(I: 24700, II: 57600)

Each recorded value in this set is attributed to patent EP4700040A1.
